Each entry below carries its reported pIC50.
Target: T1, human amylin receptor (amylin 3(a) receptor: human calcitonin receptor plus RAMP-3) (human, UniProt P30988 25-474; O60896 24-148)
T1 construct: whole, on cells; functional assay used the whole cells; also called hAmylin-R; hAmylinR
T1 sequence (looked up) 1: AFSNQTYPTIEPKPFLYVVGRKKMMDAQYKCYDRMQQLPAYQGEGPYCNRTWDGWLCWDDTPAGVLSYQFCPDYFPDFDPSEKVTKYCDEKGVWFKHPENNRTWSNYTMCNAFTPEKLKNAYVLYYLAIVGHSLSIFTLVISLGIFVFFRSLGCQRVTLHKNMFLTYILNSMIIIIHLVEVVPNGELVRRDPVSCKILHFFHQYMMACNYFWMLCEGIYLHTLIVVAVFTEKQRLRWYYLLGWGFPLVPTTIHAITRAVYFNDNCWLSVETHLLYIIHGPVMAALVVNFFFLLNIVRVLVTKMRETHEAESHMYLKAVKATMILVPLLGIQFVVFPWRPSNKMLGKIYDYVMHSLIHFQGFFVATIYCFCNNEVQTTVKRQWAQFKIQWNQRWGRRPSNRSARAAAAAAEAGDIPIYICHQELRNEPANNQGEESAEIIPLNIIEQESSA
T1 sequence (looked up) 2: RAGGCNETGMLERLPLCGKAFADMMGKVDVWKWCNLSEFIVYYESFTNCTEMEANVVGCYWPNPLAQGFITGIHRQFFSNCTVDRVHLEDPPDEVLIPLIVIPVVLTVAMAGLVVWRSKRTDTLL
Assay: SPA competition, displacement of 125I-rat amylin from membranes of BHK cells with human calcitonin receptor + RAMP-3 (Assay V)
pIC50: −log10 of the molar value. Numbered stars: 1 amine (or outer) side, 2 acyl side, 3 side chain; on linkers, the order of the positions; unused ones are H or OH. Bridge positions count the residues as written; N and C are the ends. Side chains are listed from the residue outwards. Ends that are not written are not given here. * marks the point of attachment. C20 diacid = O=C(O)CCCCCCCCCCCCCCCCCCC(=O)*; γGlu = O=C(O)[C@H](CCC(=O)[*:2])N[*:1]
READOUT NAME: pIC50

BINDER | READOUT NAME | RECORDED MEASUREMENT
K([γGlu-γGlu-C20 diacid])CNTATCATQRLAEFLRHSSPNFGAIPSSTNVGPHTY-NH2 (disulfide 2-7 (inferred)) | pIC50 | 9.42
K([γGlu-C20 diacid])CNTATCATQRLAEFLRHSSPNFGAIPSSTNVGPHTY-NH2 (disulfide 2-7) | pIC50 | 9.75
